Every entry's value here was drawn from PubChem BioAssay.

Provide the recorded GLP1 secretion stimulation for the entries that follow.
assay: glucagon-like peptide 1 release enhancers, primary assay, NCI-H716 cell line, NPC library (AID 1117341); details: NCI-H716 cells, at 10 µM, stronger effect = higher value; further: reference of the scale not given here
Active and inactive are the calls of the source.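 How the source made its calls: active means compound raises GLP1 secretion from the human gut endocrine cells, with no numeric limit stated; inactive means the rest.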

Query: Record request: GLP1 secretion stimulation value, item Cc1cccc(Nc2ccccc2C(=O)O)c1C
Result: -0.1% (inactive)

Query: Record request: GLP1 secretion stimulation value, item CCCCCCCCCCC[C@@H](C[C@@H]1OC(=O)[C@H]1CCCCCC)OC(=O)[C@H](CC(C)C)NC=O
Result: 0.9% (inactive)

Query: Record request: GLP1 secretion stimulation value, item CC(C)=CCCC(C)=CCCC(C)=CCCC(C)=CCC1=C(C)C(=O)c2ccccc2C1=O
Result: -0.8% (inactive)

Query: Record request: GLP1 secretion stimulation value, item CC(=O)OCC(CCn1cnc2cnc(N)nc21)COC(C)=O
Result: 0.4% (inactive)

Query: Record request: GLP1 secretion stimulation value, item CCN(Cc1ccncc1)C(=O)C(CO)c1ccccc1 (stereo not given)
Result: 0.1% (inactive)

Query: Record request: GLP1 secretion stimulation value, item Nc1ccc2c(c1)CN1C(=O)c3ccccc3C1=N2
Result: 2% (inactive)

Query: Record request: GLP1 secretion stimulation value, item O=C(O)CCCC[P+](c1ccccc1)(c1ccccc1)c1ccccc1
Result: 2.8% (inactive)

Query: Record request: GLP1 secretion stimulation value, item Nc1c(N=Nc2ccc(-c3ccc(N=Nc4cc(S(=O)(=O)O)c5ccccc5c4N)cc3)cc2)cc(S(=O)(=O)O)c2ccccc12
Result: -1.7% (inactive)

Query: Record request: GLP1 secretion stimulation value, item CC(C)C1CCC(C(=O)N[C@H](Cc2ccccc2)C(=O)O)CC1 (stereo not given in full)
Result: 2.1% (inactive)

Query: Record request: GLP1 secretion stimulation value, item C=C(C)C(=O)OCC(O)CO (stereo not given)
Result: -1.4% (inactive)
